# pIC50 listing for each entry below
# system: T1, 6-Helix-Fd (HIV-1 gp41 (HXB2-like, printed sequence), stabilised)
# T1 construct: also called post-fusion six-helix bundle mimic
# T1 chain: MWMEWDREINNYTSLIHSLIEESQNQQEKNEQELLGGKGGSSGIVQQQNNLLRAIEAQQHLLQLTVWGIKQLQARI
# protocolText: ELISA; competitive phage ELISA, on-phage bivalent scFv: binding to immobilised 5-Helix inhibited by free 5-Helix or free 6-Helix-Fd (concentrations for the trimer); apparent
# statedConditions: one partner purified
pIC50: −log10 of the molar value.

{"columns": ["binder", "pIC50"],
 "data": [
  ["25D8 bivalent scFv on phage (scFv, V domains shown) VH: QVQLVQSGAEVRKPGASVKVSCKASGDTFSSYAISWVRQAPGQGLEWMGGIIPIFGTANYAQAFQGRVTITANESTSTAYMELSSLRSEDTAIYYCARDNPTLLGSDYWGAGTLVTVSS VL: DIQMTQSPSTLSASIGDRVTITCRASEGISSNLAWYQQKPGKAPKLLISRAYRLASGAPSRFSGSGSGTDFTLTISSLQPDDFATYYCQQRATYPLTFGGGTKLEIK", "~5.52"],
  ["25C6 bivalent scFv on phage (scFv, V domains shown) VH: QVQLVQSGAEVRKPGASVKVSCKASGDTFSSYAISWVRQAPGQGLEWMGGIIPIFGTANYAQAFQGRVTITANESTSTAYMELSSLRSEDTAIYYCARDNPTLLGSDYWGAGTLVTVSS VL: DIQMTQSPSTLSASIGDRVTITCRASENISSRLAWYQQKPGKAPKLLISNAYHLASGAPSRFSGSGSGTDFTLTISSLQPDDFATYYCQQRSNYPHTFGGGTKLEIK", "~6.00"],
  ["25D6 bivalent scFv on phage (scFv, V domains shown) VH: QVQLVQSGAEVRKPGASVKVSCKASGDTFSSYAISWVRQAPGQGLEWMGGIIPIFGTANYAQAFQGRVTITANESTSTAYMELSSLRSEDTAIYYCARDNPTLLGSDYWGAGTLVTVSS VL: DIQMTQSPSTLSASIGDRVTITCRASENIYSNLAWYQQKPGKAPKLLISSASRLASGAPSRFSGSGSGTDFTLTISSLQPDDFATYYCQQNSNNPHTFGGGTKLEIK", "~7.10"]
]}
